Attribution: ChEMBL document CHEMBL3430912

# Tested on: Leishmania donovani
# testMethodNotes: GSK_TCAKS: pIC50 Leishmania donovani Imaging: THP-1 Host Macrophages. Assay plates (384-well) were prepared by adding 250nL of compound to each well. For single shot assay, the final compound concentration was 5 uM. […] Automated image analysis was performed with a script developed on Acapella High Content Imaging and Analysis Software (PerkinElmer). Output: THP-1 cell count were reported for each well.
# Type: functional, organism-based, Homo sapiens
Binary call on IC50 with cut-off 20 µM: strictly below means Fulfilled, and equality or higher means Not fulfilled.

                                    molecule  assignedcategory
 0  CN(C)S(=O)(=O)c1ccc(-c2cnc(N)c(-c3nc4ccc(F)cc4[nH]3)c2)cc1         Fulfilled
 1  Nc1nc(-c2ccccn2)nc(-n2nc(-c3cccc(C(F)(F)F)c3)cc2N)n1         Fulfilled
 2  O=C(NCCc1ccccn1)C(c1cn[nH]c1)N1CCN(c2ccc(Cl)c(Cl)c2)CC1 (stereo unspecified)     Not fulfilled
 3  COc1cccc(C(=O)[C@H]2C[C@@H]2CN(Cc2cccnc2)Cc2cccnc2)c1     Not fulfilled
 4  FC(F)(F)c1cc(C2CCCN(Cc3c[nH]c4ccccc34)C2)nc2ncnn12 (stereo unspecified)         Fulfilled
 5  O=C(NCC(c1cccs1)N1CCOCC1)c1ccc([N+](=O)[O-])o1 (stereo unspecified)     Not fulfilled
 6  CCOc1ccc(Nc2ccc(S(=O)(=O)N3CCN(C)CC3)cc2[N+](=O)[O-])cc1OCC         Fulfilled
 7  CCS(=O)(=O)Nc1ccc(C2=NN(C(=O)c3cccs3)C(c3ccccc3OC)C2)cc1 (stereo unspecified)     Not fulfilled
 8  O=C(NC1C(=O)N(c2ccccc2)C1c1cccnc1)c1ccc(Cl)s1 (stereo unspecified)     Not fulfilled
 9  CN(C)S(=O)(=O)c1cccc(CSc2nnc(-c3ccc4c(c3)OCO4)o2)c1     Not fulfilled
10  Cc1ccc(Nc2nc(-c3ccccn3)cc(N3CCCC(O)C3)n2)cc1 (stereo unspecified)     Not fulfilled
11  CC(CNS(=O)(=O)c1ccc(OC(F)F)cc1)c1ccc(NC(=O)c2ccncc2)cc1 (stereo unspecified)         Fulfilled
12  COc1ccc(NS(=O)(=O)c2ccc(S(=O)(=O)N(C)C3CCCCC3)cc2)c2ncccc12     Not fulfilled
13    Cc1ccccc1CNC(=O)CN(Cc1ccccn1)Cc1ccccn1     Not fulfilled
14  COc1ccc(-c2cnc(NC(=O)c3cc(-c4ccccn4)n[nH]3)n2C)cc1     Not fulfilled
15  O=C1CCCCCC1(Cc1cnc[nH]1)c1ccc(Cl)cc1Cl (stereo unspecified)     Not fulfilled
16  O=S(=O)(NCC(c1cccnc1)N1CCN(c2ccccc2F)CC1)c1ccc(F)cc1 (stereo unspecified)     Not fulfilled
17  Cc1nc2c(-c3ncn[nH]3)cc(NC(=O)Cc3ccccc3)cn2c1C         Fulfilled
18  COc1cc(-c2nc(N3CCOCC3)sc2-c2ccnc(NC3CCOCC3)n2)ccc1Cl     Not fulfilled
19  CN(Cc1ccc(F)cc1)c1ccc(OCC(=O)N2CCCCC2c2cccnc2)nn1 (stereo unspecified)     Not fulfilled
20     Nc1nc(-c2ccccn2)nc(N)c1Cc1c(F)cccc1Cl     Not fulfilled
21  Cc1ccc(NC(=O)c2ccnc(N3CCCC3)c2)cc1-c1cc(C(N)=O)ccc1C     Not fulfilled
22  CN(C)Cc1cccc(Nc2nccc(-c3ccc(NCCN)c(C#N)c3)n2)c1         Fulfilled
23  O=S(=O)(c1cccc(CSc2nnc(-c3ccc4c(c3)OCO4)o2)c1)N1CCOCC1     Not fulfilled
24  CC1=NN(C(=O)CCn2cnc([N+](=O)[O-])n2)C(O)(C(F)(F)F)C1 (stereo unspecified)     Not fulfilled
25  O=C(CN1CCN(c2ccccn2)CC1)Nc1cc(S(=O)(=O)N2CCCCCC2)ccc1Cl     Not fulfilled
26  O=C(Nc1nc2ccccc2[nH]1)c1c(O)c2cccc3c2n(c1=O)CC3     Not fulfilled
27  N#Cc1cccc(CN2CCC(c3nc(-c4ccc(C(F)(F)F)nc4)no3)CC2)c1     Not fulfilled
28  CNC(=O)C1Cc2ccccc2N1C(=O)Cc1ccccc1 (stereo unspecified)     Not fulfilled
29  COc1cc(OC)cc(C(NS(=O)(=O)c2ccc(Cl)c(C(F)(F)F)c2)c2nccn2C)c1 (stereo unspecified)     Not fulfilled
30  O=C(Nc1cccc(S(=O)(=O)Nc2ccc(Br)cc2)c1)c1ccc([N+](=O)[O-])s1         Fulfilled
31  c1ccc(Nc2nc(-c3ccccn3)cc(N3CCOCC3)n2)cc1     Not fulfilled
32           c1cc(-c2ncc(-c3ccn[nH]3)s2)ccn1     Not fulfilled
33  COc1ccc(NC(=O)c2ccc(NC(=O)CN(c3ccccc3C)S(C)(=O)=O)cc2)cc1     Not fulfilled
34  Cc1ccc2ccc(C(Nc3ccccn3)c3cccnc3)c(O)c2n1 (stereo unspecified)     Not fulfilled
35     CCCn1c(NC(=O)Cc2ccc(Cl)cc2)nc2ccccc21     Not fulfilled
36  Cc1nc2[nH]c(C)c(Cc3ccc(C(C)C)cc3)c(=O)n2n1     Not fulfilled
37  COc1ccc(C2CC(c3ccc(NS(C)(=O)=O)cc3)=NN2C(=O)c2cccs2)cc1OC (stereo unspecified)     Not fulfilled
38            Cc1cccc(Nc2nc(-c3ccccn3)cs2)n1     Not fulfilled

---

# System: Leishmania donovani
# testMethodNotes: GSK_TCAKS: pIC50 Leishmania donovani Imaging: THP-1 Host Macrophages. Assay plates (384-well) were prepared by adding 250nL of compound to each well. For single shot assay, the final compound concentration was 5 uM. […] Automated image analysis was performed with a script developed on Acapella High Content Imaging and Analysis Software (PerkinElmer). Output: THP-1 cell count were reported for each well.
# Type: functional, organism-based, Homo sapiens
pIC50: −log10 of the molar value.
quantityName: pIC50

In [3]: df
Out[3]:
                                    compound  quantityname  readoutrelation  testvalue
 0       CC(C)(C)c1cc(NC2CC2)nc(-c2ccccn2)n1         pIC50                =       4.60
 1  Cc1nccn1C1CCCN(C(=O)c2cc3c(F)cccc3s2)C1 (stereo unspecified)         pIC50                <       4.30
 2  N#Cc1ccc(S(=O)(=O)N2CCC3(CCN(c4ccccc4)C3=O)CC2)cc1         pIC50                <       4.30
 3  Clc1ccc(OCCN2CCCCC2c2cccnc2)c(Cl)c1 (stereo unspecified)         pIC50                <       4.30
 4  N#Cc1ccc(C(=O)Nc2cccc(-c3cccc(CN4CCC(O)CC4)c3)c2)cc1         pIC50                =       4.80
 5  CC(C)N(C(=O)CN1C(=O)C(N)C(=O)N(c2ccccc2)c2ccccc21)c1ccccc1 (stereo unspecified)         pIC50                <       4.30
 6  O=C(CC1(O)C(=O)N(Cc2cccs2)c2ccc(Br)cc21)c1cccnc1 (stereo unspecified)         pIC50                =       4.70
 7  CN(C)c1ccc(N)cc1CN(CC1CCCO1)S(C)(=O)=O (stereo unspecified)         pIC50                <       4.30
 8  O=C1OCc2ccc(Nc3nccc(-c4cnn5ncccc45)n3)cc21         pIC50                =       8.10
 9  CC(c1ccccn1)N(C)Cc1nc2ccccc2n1C(C)C (stereo unspecified)         pIC50                =       4.80
10  Cc1noc(C)c1COc1cccc(C(=O)N=c2[nH]cccc2C)c1         pIC50                =       5.20
11  COc1ccc(C(=O)Nc2cc(C(F)(F)F)ccc2N2CCOCC2)c(OC)c1         pIC50                =       4.90
12       Cc1occc1C(=O)Nc1ccccc1C(=O)Nc1nccs1         pIC50                <       4.30
13  CC(=O)NC1(c2ccccc2)CCN(CC(=O)Nc2ccccc2-c2ccccc2)CC1         pIC50                <       4.30
14  CCCCCNC(=O)c1c[nH]c2ccc(S(=O)(=O)N(C)c3ccc(OCC)cc3)cc2c1=O         pIC50                <       4.30
15  O=C(NCc1ccc(-n2cccc2)cc1)c1nc(Cn2ccc([N+](=O)[O-])n2)no1         pIC50                <       4.30
16  Cc1ncsc1CNc1cnc(-c2ccc3c(c2)OCCO3)c(-c2cnn(C)c2)c1         pIC50                =       4.80
17  COc1cc(F)c2ncc(F)c(CCN3CC[C@H](NCc4cc5c(cn4)OCS5)[C@@H](O)C3)c2c1         pIC50                =       4.80
18  Cc1cc(NC(=O)c2ccc([N+](=O)[O-])s2)ccc1Br         pIC50                =       4.80
19  CCCCc1cc(Nc2cc(C3CCC3)[nH]n2)nc(N2CCC2C(N)=O)n1 (stereo unspecified)         pIC50                =       6.00
20  COc1ccc(NS(=O)(=O)c2cccc(NC(=O)c3cc(F)cc(F)c3)c2)cc1         pIC50                <       4.30
